Substrate: C[C@H](NC(=O)CCC(=O)O)C(=O)N[C@@H](C)C(=O)N1CCC[C@H]1C(=O)N[C@@H](Cc1ccccc1)C(=O)Nc1ccc([N+](=O)[O-])cc1
Experiment: Kinetic parameters from progress curves, p-nitroanilide substrates
Type: biochemical, B. amyloliquefaciens
Details: other: 25° C., 0.1M tris buffer, pH 8.6
Assignment: determine reported kcat for the given proteins.
Reply with just the number (in s⁻¹).

Problem: May I ask what kcat has been recorded for B. amyloliquefaciens subtilisin variant lys + 166 (glycine+166 substituted) (Bacillus amyloliquefaciens; G273K) (protein, codons for the mature subtilisin corresponding to that secreted by the B. amyloliquefaciens; made in house; host or cells: Bacillus subtilis BG2036 (protease deficient)) AQSVPYGVSQIKAPALHSQGYTGSNVKVAVIDSGIDSSHPDLKVAGGASMVPSETNPFQDNNSHGTHVAGTVAALNNSIGVLGVAPSASLYAVKVLGADGSGQYSWIINGIEWAIANNMDVINMSLGGPSGSAALKAAVDKAVASGVVVVAAAGNEGTSGSSSTVKYPGKYPSVIAVGAVDSSNQRASFSSVGPELDVMAPGVSIQSTLPGNKYGAYNGTSMASPHVAGAAALILSKHPNWTNTQVRSSLENTTTKLGDSFYYGKGLINVQAAAQ ?
Result: 15

Problem: What do you get for B. amyloliquefaciens subtilisin variant glu + 166 (E166, glycine+166 substituted) (Bacillus amyloliquefaciens; G273E) (protein, codons for the mature subtilisin corresponding to that secreted by the B. amyloliquefaciens; made in house; host or cells: Bacillus subtilis BG2036 (protease deficient)) AQSVPYGVSQIKAPALHSQGYTGSNVKVAVIDSGIDSSHPDLKVAGGASMVPSETNPFQDNNSHGTHVAGTVAALNNSIGVLGVAPSASLYAVKVLGADGSGQYSWIINGIEWAIANNMDVINMSLGGPSGSAALKAAVDKAVASGVVVVAAAGNEGTSGSSSTVEYPGKYPSVIAVGAVDSSNQRASFSSVGPELDVMAPGVSIQSTLPGNKYGAYNGTSMASPHVAGAAALILSKHPNWTNTQVRSSLENTTTKLGDSFYYGKGLINVQAAAQ ?
Result: 11
